# System: HT29 colon
# test_summary: NCI-60 one-dose screen, 48 h (100 = growth as untreated, 0 = no growth, -100 = all killed)
# test_conditions: 10 µM unless noted
This is part of a sample that, as a whole, favours compounds with a hit. Of some 83,000 tested, about 20% had one in any assay.
So basically every entry gets a class from its growth, ranges being band A: < 20%; band B: ≥ 20% and < 90%; band C: ≥ 90%

// return the class label for O=c1c2cc(C(F)(F)F)ccc2sc2c(NCCCNCCO)nc3ccccc3c12
band A

// bin(item) where item = COc1ccc(C2CC(c3ccc(Nc4nc(Nc5ccc(F)cc5)nc(Nc5ccc(Cl)cc5)n4)cc3)=NN2C(C)=O)cc1 (stereo not given)
band C

Dear colleague, I would appreciate it if you could identify the bin for Cc1nc(/N=C(\N)NC(=O)Nc2cccc(Cl)c2)sc1C and reply at your convenience.
band B

Please indicate the class for COc1ccc(NC2=C(Br)C(=O)C(C)=C(C)C2=O)cc1 based on its growth.
band C

Exam item: assign C[C@]12CC[C@@H]3c4cc(OC(F)F)c(OS(N)(=O)=O)cc4CC[C@H]3[C@@H]1CC[C@@H]2OS(N)(=O)=O to the correct category.
band C

Please report the category associated with Cc1ccc(C(=O)NCCNc2nccc(-c3c(-c4cccc(F)c4)nc4sccn34)n2)cc1 , nothing else.
band B

State the band of COc1ccc2c(c1)C(C)Cc1c(ncnc1-n1c(C)nc3ccccc31)N2C (stereo not given)
band A

Dear colleague, I would appreciate it if you could identify the bin for Cn1cc(-c2ccc3cc(-c4ccc(CC(=O)Nc5cc(C(C)(C)C)nn5C)cc4)cnc3c2)cn1 and reply at your convenience.
band B

Class? Entry: Cc1oc2nc[nH]c(=O)c2c1C(=O)/C=C/c1ccc(Br)cc1
band A

Given COc1ccc(-c2ncnc3c2ncn3CC#CCCl)cc1 , name the class its growth places it in.
band C

----------
# Test system: MALME-3M melanoma
# test_summary: NCI-60 one-dose screen, 48 h (100 = growth as untreated, 0 = no growth, -100 = all killed)
# test_conditions: 10 µM unless noted
The panel holds about 83,000 compounds, 20% with a hit somewhere; the sample as a whole holds those more often.
quantity_name: growth (%)
State just the number; it will be interpreted in %.

Need growth, item O=C(/C=C/c1ccc([N+](=O)[O-])o1)NNC(=O)c1cc2ccccc2cc1O
-36.3

// growth lookup, key: Cc1ccc(S(=O)(=O)Oc2ccc(NC(=O)c3ccc(Cl)cc3)cc2)cc1
100

# growth lookup, item NCCOc1ncccc1/C=C1\C2C=CC=CC2C2C=CC(F)=CC12 (stereo not given)
39.2

Entry CCc1ccc(Oc2c(-c3ccc(OCc4ccc(Cl)cc4)cc3O)nn(C)c2C(F)(F)F)cc1 has what growth?
-27.6

So what's the measured growth for this one? O=c1c2cc(F)ccc2sc2c(NCCN3CCOCC3)nc3ccccc3c12
92

----------
# System: T-47D breast
# test_summary: NCI-60 one-dose screen, 48 h
# test_conditions: 10 µM unless noted
The panel holds about 83,000 compounds, 20% with a hit somewhere; the sample as a whole holds those more often. The source made the active and inactive calls. The calls were made as follows: active = growth percent below 10; inactive = the rest.
Respond with a class label; see active, inactive

Which result was noted for this molecule in the test: O=CN(SSN(C=O)C1CCCCC1)C1CCCCC1
inactive

Name the outcome recorded for CNc1nc2c(s1)C(c1cc(F)ccc1F)CC(=O)N2 (stereo not given) in the assay.
inactive

Returns: the outcome recorded for CC(=O)Oc1ccccc1C(=O)N=C1[Se]CCCN1C(=O)c1ccccc1OC(C)=O in this assay.
inactive

What classification did O=C(O)c1cn(C2CC2)c2cc(N3CCN(C(=O)Nc4nc(-c5ccc(Cl)cc5)cs4)CC3)c(F)cc2c1=O end up with in this test?
active

Name the outcome recorded for Cc1ccc(-c2cnc3sc(C(=O)NCCc4ccccc4)c(C)n23)cc1 in the assay.
inactive

Query: recorded result category for COc1ccc(S(=O)(=O)n2c3ccccc3n3ncc(-c4nnc(C)o4)c23)cc1 in this test
inactive

What classification did COc1ccc(-c2nc3sc(-c4ccc(Cl)cc4)cn3n2)cc1 end up with in this test?
inactive

Tell me the recorded outcome of this test for CCCCCCn1c(-c2ccc(C(=O)O/N=C(\N)c3ccc4c(c3)OCO4)cc2)nc(-c2ccccc2)c1-c1ccccc1 .
active

So what was the verdict on CCOC(=O)C1=C(N)Oc2c(sc3c(CC)cccc23)C1c1ccc(F)cc1 (stereo not given) in this test?
inactive

// param item: CCc1ccc2nc(NC(=O)Cc3csc(NC(=O)c4ccco4)n3)sc2c1 ; yields the recorded call
inactive

----------
# Tested on: DU-145 prostate
# test_summary: NCI-60 one-dose screen, 48 h (100 = growth as untreated, 0 = no growth, -100 = all killed)
# test_conditions: 10 µM unless noted
The panel holds about 83,000 compounds, 20% with a hit somewhere; the sample as a whole holds those more often.
quantity_name: growth (%)
Give the number; % is assumed, so skip it.

State the recorded growth for this entry: CCCCC[C@H](O)C/C=C1/C(=O)C=C[C@@H]1C/C=C\CCCC(=O)O
67.8

Report growth for O=[N+]([O-])c1ccccc1NCSc1ccc(Cl)cc1 please.
102

Find the recorded growth belonging to COc1ccc(-c2cnc3ccccc3n2)cc1 and report it.
106

Would you mind telling me what growth value was observed for O=C1c2cccc3cccc(c23)C(=O)N1Nc1nc(N2CCOCC2)nc(N2CCN(c3ccccc3)CC2)n1 ?
55

Dear colleague, I am looking for the recorded growth of the following compound: Oc1ccc(CCl)c2cccnc12
88.1

Value lookup for growth; key = O=C(S)CNC(=O)c1ccccc1
98.8

Reported growth, compound Cc1ccc2sc3c(NCCN)nc4ccccc4c3c(=O)c2c1 : ____
64.1

growth for C[C@H]1[C@H]2[C@H]3CC[C@@H]4[C@@]5(C)CC[C@H](O)C(C)(C)[C@@H]5CC[C@@]4(C)[C@]3(C)CC[C@]23CO[C@]1(C)[C@@H](C(=O)/C=C\c1cccnc1)C3 ?
73.9

# growth lookup, item CN1C(=O)N(C)C2Nn3c(s/c(=C\c4ccccc4)c3=O)=NC21 (stereo unspecified)
106

Fill in: growth of CCN1C(=O)N(CC)C2Nn3c(s/c(=C4\C(=O)Nc5ccccc54)c3=O)=NC21 (stereo unspecified) is ___
10.2

Entry COc1c(C2CC(=O)Nc3c2c(C)nn3-c2nc3ccccc3[nH]2)cc2c(c1OC)OCO2 (stereo unspecified) : reported growth = ?
80.2

// growth lookup, key: CCCCNc1nc(NN2C(=O)c3cccc4cccc(c34)C2=O)nc(-n2cnc3ccccc32)n1
98.6

# get_value(readout='growth', item= O=C(COc1ccc(/C=C2\Cc3ccc(Cl)cc3C2=O)cc1)Nc1nc2ccccc2s1 )
115

Give its growth value. Item: CC1CN(C2CCCCC2)C(=S)N(c2ccccc2)C1=O (stereo unspecified)
115

Entry CN1CCN(c2ccc(-c3cc4c(Nc5ccc(F)c(Cl)c5)ncnn4c3)cc2)CC1 has what growth?
44.1

Need growth, item Cc1ccc2nc(NC(=O)CSc3nc(Cl)c(C#N)c(-c4ccccc4)n3)sc2c1
113

Any idea what growth was measured for CNc1nc2c(s1)C(c1cccc(F)c1)CC(=O)N2 (stereo unspecified) ?
106

Dear colleague, I am looking for the recorded growth of the following compound: Cc1nc2ccccc2c(/C=C/c2ccc(Cl)cc2)c1C(=O)/C=C/c1ccc(C(F)(F)F)cc1
-83.7

// growth lookup, key: CSc1nc2ccc(C)cc2cc1/C=N/O
93

// growth lookup, key: COc1ccc(OC)c(/C=C/c2nnc(Nc3ccccc3)o2)c1
93.3

# input compound: CCCSc1nc2ccc(C)cc2cc1/C=[N+](\[O-])c1ccccc1 ; wanted: its growth
42

----------
# System: OVCAR-8 ovarian
# test_summary: NCI-60 one-dose screen, 48 h
# test_conditions: 10 µM unless noted
About 83,000 compounds went through this panel and 20% of them were active in at least one assay; those are over-represented in the sample as a whole. The source made the active and inactive calls. Rule for the calls: active = growth percent below 10; inactive = the rest.
The categories you may choose from are yes (1) (active), no (0) (inactive)

How did this test come out for CCOC(=O)c1[nH]c(C)c(C(=O)OCc2ccccc2C#N)c1C ?
no (0)

Per the records of this test, what outcome belongs to CCCSc1nc2ccc(C)cc2cc1/C=[N+](\[O-])c1ccccc1 ?
no (0)

Field: outcome | Entry: Cc1nc2cnc(N)c(C#Cc3cncc(C(=O)Nc4ccc(CN5CCN(C)CC5)c(C(F)(F)F)c4)c3)c2nc1C
no (0)

Write down the call the test reported for this compound. Item: COc1cccc2nc3n(c12)C(c1c(F)cccc1F)SC3 (stereo not given)
no (0)

# fetch the recorded call for Cc1nc2ccccc2c(/C=C/c2ccc(Cl)cc2)c1C(=O)/C=C/c1cccs1 here
no (0)

Each compound tested received a call. Report the one for Nc1nc2ccccc2c2c(=O)c3cc(F)ccc3sc12 .
no (0)

Answer briefly: the call reported for COc1cc(CCC[P+](c2ccccc2)(c2ccccc2)c2ccccc2)c(OC)c(OC)c1OC in this assay.
no (0)

# outcome recorded in this test, key = C=C1CC[C@@]2(C#N)[C@H]3[C@H](CC[C@@H]2C)[C@@H](C)C[C@@H](CC(C)(C)C#N)[C@H]13
no (0)

Assay result, entry COc1ccc(C(=O)C[C@]2(O)C(=O)Nc3c(Cl)ccc(Cl)c32)cc1 — outcome?
no (0)

Outcome logged for CC[C@H](C)C(=O)O[C@H]1CCC=C2C=C[C@H](C)[C@H](CC[C@@H]3CC=CC(=O)O3)[C@H]21 in this assay:
no (0)

// param item: CCOC(=O)Nc1ccc(-c2nc(-c3cccc(OC)c3)c(-c3ccnc(Br)c3)[nH]2)cc1 ; yields the recorded call
no (0)

What was the test verdict on Cc1c(C(=O)/C=C/Nc2c(Cl)cc(S(N)(=O)=O)cc2Cl)sc2nc3ccccc3n12 ?
no (0)

Fill in: this test's call for N#C/C(=C\c1ccc(F)cc1)n1nc2cccc(F)c2n1 is ___
no (0)

Per the assay record, what outcome was assigned to COc1c(N2CC3CCCN(C(C)=O)C3C2)c(F)cc2c(=O)c(C(=O)N[C@H]3C(O)[C@@H](O)C(CO)O[C@H]3O)cn(C3CC3)c12 (stereo not given in full) ?
no (0)

Tell me the assay call for C#Cc1cccc(NC(=O)Nc2ccccc2NC(=O)CCl)c1 please.
yes (1)

Outcome logged for OC(COc1ccccc1Cl)CN1CCN(c2cccc(Cl)c2)CC1 (stereo not given) in this assay:
no (0)

For N#Cc1c(Nc2cccc(Cl)c2)sc(C(=O)c2cc3cc(Cl)ccc3o2)c1N , which call appears in the assay record?
no (0)

Per the records of this test, what outcome belongs to Cc1cccc2c(=O)c3c(sc12)c(NCc1ccccc1)nc1ccccc13 ?
no (0)

# outcome recorded in this test, key = Cc1nc(/N=C(\N)NC(=O)Nc2ccccc2Cl)sc1C
no (0)

Identify the outcome logged in this assay for the compound shown: COc1ccc(C2C(N)=NNC2c2cccc(O)c2)cc1 (stereo not given)
no (0)
